B1: MNAT1 (parent)
chain: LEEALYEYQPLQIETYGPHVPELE

variants of: B1; assay: protein stability index of a GFP-peptide fusion (GPS, HEK-293T) (PSI 1-6); higher = more stable; details: c terminus: a fixed tail appended;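 also: lentivirally expressed fusions sorted by FACS into six bins by GFP to DsRed ratio, PSI derived from sequencing read proportions per bin multiplied by bin number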

- Mutation: "Y16V"
  protein stability index: 3.19
- Mutation: "Q9W"
  protein stability index: 2.79
- Mutation: "E2F"
  protein stability index: 1.71
- Mutation: "E24A"
  protein stability index: 2.84
- Mutation: "E24N"
  protein stability index: 2.35
- Mutation: "E14R"
  protein stability index: 1.93
- Mutation: "I13A"
  protein stability index: 5.37
- Mutation: "L11K"
  protein stability index: 4.26
- Mutation: "T15I"
  protein stability index: 1.61
- Mutation: "I13T"
  protein stability index: 4.75
- Mutation: "P21M"
  protein stability index: 2.53
- Mutation: "L1M"
  protein stability index: 3.18
- Mutation: "P10A"
  protein stability index: 3.89
- Mutation: "G17M"
  protein stability index: 1.75
- Mutation: "P21N"
  protein stability index: 2.47
- Mutation: "P18L"
  protein stability index: 2.16
- Mutation: "P10F"
  protein stability index: 2.91
- Mutation: "Y16F"
  protein stability index: 3.49
- Mutation: "P18G"
  protein stability index: 2.96
- Mutation: "E22P"
  protein stability index: 2.28
- Mutation: "Y8G"
  protein stability index: 5.41
- Mutation: "Q12T"
  protein stability index: 3.19
- Mutation: "Q9N"
  protein stability index: 2.59
- Mutation: "L5G"
  protein stability index: 4.8
- Mutation: "L23K"
  protein stability index: 3.59
- Mutation: "P21L"
  protein stability index: 2.79
- Mutation: "Q12F"
  protein stability index: 2.12
- Mutation: "E3H"
  protein stability index: 3.16
- Mutation: "L1Y"
  protein stability index: 4.45
- Mutation: "P18D"
  protein stability index: 2.8
- Mutation: "L1E"
  protein stability index: 5.1
- Mutation: "H19V"
  protein stability index: 2.21
- Mutation: "E7I"
  protein stability index: 2.44
- Mutation: "V20E"
  protein stability index: 1.94
- Mutation: "L23C"
  protein stability index: 3.16
- Mutation: "L5T"
  protein stability index: 4.9
- Mutation: "A4R"
  protein stability index: 4.81
- Mutation: "L11E"
  protein stability index: 4.77
- Mutation: "V20R"
  protein stability index: 2.58
- Mutation: "T15A"
  protein stability index: 1.99
- Mutation: "E3N"
  protein stability index: 3.67
- Mutation: "P18C"
  protein stability index: 1.91
- Mutation: "E24F"
  protein stability index: 1.91
- Mutation: "L11V"
  protein stability index: 2.04
- Mutation: "A4M"
  protein stability index: 3.72
- Mutation: "L11T"
  protein stability index: 3.99
- Mutation: "L11Y"
  protein stability index: 3.18
- Mutation: "L1T"
  protein stability index: 5.14
- Mutation: "T15S"
  protein stability index: 3.54
- Mutation: "L5E"
  protein stability index: 4.58
- Mutation: "L5F"
  protein stability index: 4.33
- Mutation: "Q9S"
  protein stability index: 2.94
- Mutation: "E24G"
  protein stability index: 2.03
- Mutation: "E3G"
  protein stability index: 3.41
- Mutation: "Y6E"
  protein stability index: 2.74
- Mutation: "E2S"
  protein stability index: 2.4
- Mutation: "I13F"
  protein stability index: 4.34
- Mutation: "P10I"
  protein stability index: 2.77
- Mutation: "H19P"
  protein stability index: 2.01
- Mutation: "H19I"
  protein stability index: 1.57
- Mutation: "P18F"
  protein stability index: 2.17
- Mutation: "P21T"
  protein stability index: 2.56
- Mutation: "E24W"
  protein stability index: 1.45
- Mutation: "E7M"
  protein stability index: 2.19
- Mutation: "E22S"
  protein stability index: 2.4
- Mutation: "Y8C"
  protein stability index: 4.91
- Mutation: "P21H"
  protein stability index: 2.58
- Mutation: "Y16E"
  protein stability index: 4.13
- Mutation: "Q9K"
  protein stability index: 2.68
- Mutation: "E2V"
  protein stability index: 2.55
- Mutation: "L11C"
  protein stability index: 2.99
- Mutation: "L1A"
  protein stability index: 5.28
- Mutation: "P18K"
  protein stability index: 4.11
- Mutation: "L23N"
  protein stability index: 3.34
- Mutation: "Q12V"
  protein stability index: 2.46
- Mutation: "E7F"
  protein stability index: 1.87
- Mutation: "P21E"
  protein stability index: 3.67
- Mutation: "E24I"
  protein stability index: 1.88
- Mutation: "L5I"
  protein stability index: 4.87
- Mutation: "P21K"
  protein stability index: 3.01
- Mutation: "I13N"
  protein stability index: 5.5
- Mutation: "Y8E"
  protein stability index: 5.4
- Mutation: "V20I"
  protein stability index: 2.4
- Mutation: "Q9R"
  protein stability index: 1.88
- Mutation: "Y6Q"
  protein stability index: 2.81
- Mutation: "Q12W"
  protein stability index: 2.11
- Mutation: "T15V"
  protein stability index: 1.7
- Mutation: "I13H"
  protein stability index: 5.15
